target: Rac-1 (Homo sapiens, UniProt P63000); experiment: Ras GTP binding domain inhibition assay (labeled-GTP competition, cell-free); design: made in house; settings: with SOS, read-out: Rac-1 + SOS: % inh.
Each entry below lists one item and its recorded inhibition at 20 µM value.

Some solved entries appear below for comparison.
COMPOUND	RESULT
Cc1c(-c2ccn(C(C)C)n2)sc2nc(-c3nccn3C)nc(NC3CCOC3)c12 (racemic)	76 to 100%
COCCNC(=O)c1nc(O)c2scc(-c3ccccn3)c2n1	26 to 50%
COCCn1ccnc1-c1nc(N[C@@H]2CC[C@H](OC)C2)c2ccsc2n1 (racemic)	76 to 100%
COCCNc1nc(-c2nccn2C)nc2sc(-c3ccn(C(C)C)n3)c(C)c12	76 to 100%

In: May I ask what inhibition at 20 µM has been recorded for `NC(=O)c1nc(O)c2scc(-c3ccccn3)c2n1` ?
Out: 26 to 50%

In: # repeat for `CC(C)NC(=O)c1nc(O)c2scc(-c3ccccn3)c2n1`
Out: 26 to 50%

In: # repeat for CO[C@H]1CC[C@@H](Nc2nc(C(=O)Nc3ccccn3)nc3sccc23)C1 (racemic)
Out: 0%

In: # repeat for COCC1CN(c2nc(-c3nccn3C)nc3sc(-c4ccn(C(C)C)n4)c(C)c23)CCO1 (racemic)
Out: 76 to 100%

###

target: KRas G12C mutant (Homo sapiens, UniProt P01116, G12C); construct: made in house; assay: Ras GTP binding domain inhibition assay (labeled-GTP competition, cell-free); conditions: without SOS, read-out: KRas G12C mutant: % inh.
READOUT: inhibition at 20 µM

Some solved entries appear below for comparison.
COMPOUND	RESULT
CO[C@H]1CC(Nc2nc(-c3nccn3C)nc3sc(-c4ccn(C(C)C)n4)c(C)c23)C[C@@H]1OC (racemic) [Compound 44]	76 to 100%
COC1CCCN(c2nc(-c3nccn3C)nc3sc(-c4ccn(C(C)C)n4)c(-c4ccccc4)c23)C1 (racemic) [Compound 77]	26 to 50%
COCC1COCCN1c1nc(-c2nccn2C)nc2sc(-c3ccn(C(C)C)n3)c(C)c12 (racemic) [Compound 41]	51 to 75%
Cc1sc2c(O)nc(-c3ccccn3)nc2c1-c1ccccn1 [Compound 26]	76 to 100%
CO[C@H]1CC[C@H](Nc2nc(-c3nccn3C)nc3sc(-c4ccn(C(C)C)n4)c(C)c23)CC1 [Compound 54]	76 to 100%

In: May I ask what inhibition at 20 µM has been recorded for O=C(Nc1ccccn1)c1nc(O)c2scc(-c3ccccn3)c2n1 [Compound 24] ?
Out: 1 to 25%

In: # repeat for COC1CCCN(c2nc(-c3nccn3C)nc3sc(-c4ccn(C(C)C)n4)c(C)c23)C1 (racemic) [Compound 40]
Out: 51 to 75%

In: # repeat for CO[C@H]1CCCN(c2nc(-c3nccn3C)nc3sc(-c4ccn(C(C)C)n4)c(C)c23)C1 [Compound 49]
Out: 1 to 25%

###

target: Rho-A (Homo sapiens, UniProt P61586); assay: Ras GTP binding domain inhibition assay (labeled-GTP competition, cell-free); design: made in house; details: with SOS, read-out: Rho-A + SOS: % inh.
Each entry below lists one item and its recorded inhibition at 20 µM value.

Some solved entries appear below for comparison.
MOLECULE	inhibition at 20 µM
CO[C@H]1CC(Nc2nc(-c3nccn3C)nc3sc(-c4ccn(C(C)C)n4)c(C)c23)C[C@@H]1OC (racemic)	76 to 100%
CO[C@H]1CC[C@@H](Nc2nc(C(=O)N3CCCC3)nc3sccc23)C1 (racemic)	0%
CO[C@@H]1CC[C@H](Nc2nc(-c3nccn3C)nc3sc(-c4ccn(C(C)C)n4)c(C)c23)C1	51 to 75%

In: May I ask what inhibition at 20 µM has been recorded for CO[C@H]1CC[C@@H](Nc2nc(-c3nccn3C)nc3sc(-c4cn(C)cn4)c(-c4ccccc4)c23)C1 (racemic) ?
Out: 76 to 100%

###

Each entry below lists one item and its recorded % inh of AKT phosphorylation in PANC-1 value.
test system: Akt phosphorylation in Panc-1 cells; assay: Western AKT cell-based phosphorylation assay; parameters: species or system human; conditions: at 10 μM, values in brackets < > are activation %, not inhibition

STRUCTURE	READOUT	RESULT
Cc1c(-c2ccn(C(C)C)n2)sc2nc(-c3nccn3C)nc(NCCc3ncc[nH]3)c12	% inh of AKT phosphorylation in PANC-1	0 (0% inhibition)
Oc1nc(-c2cccnc2)nc2c(-c3ccccn3)csc12	% inh of AKT phosphorylation in PANC-1	0 (0% inhibition)

In: May I ask what % inh of AKT phosphorylation in PANC-1 has been recorded for `CO[C@H]1C[C@@H](Nc2nc(-c3nccn3C)nc3sc(-c4ccn(C(C)C)n4)c(C)c23)C1` ?
Out: 0 (0% inhibition)

###

molecular target: Rac-1 (Homo sapiens, UniProt P63000); assay: Ras GTP binding domain inhibition assay (labeled-GTP competition, cell-free); parameters: made in house; conditions: without SOS, read-out: Rac-1: % inh.
READOUT: inhibition at 20 µM

Some solved entries appear below for comparison.
COMPOUND	inhibition at 20 µM
COCC1CCN(c2nc(-c3nccn3C)nc3sc(-c4ccn(C(C)C)n4)c(C)c23)C1 (racemic) [Compound 38]	76 to 100%
COc1ccn2c(-c3nc(O)c4scc(-c5ccccn5)c4n3)ncc2c1 [Compound 85]	51 to 75%
COCCn1c(-c2nc(O)c3scc(-c4ccccn4)c3n2)nc2ccccc21 [Compound 87]	51 to 75%
Cc1c(-c2ccn(C(C)C)n2)sc2nc(-c3nccn3C)nc(NCc3n[nH]c(=O)n3C)c12 [Compound 60]	51 to 75%
Cc1c(-c2ccn(C(C)C)n2)sc2nc(-c3nccn3C)nc(NCCc3nnn[nH]3)c12 [Compound 46]	76 to 100%
COc1cccc(Nc2nc(-c3nccn3C)nc3sc(-c4ccn(C(C)C)n4)c(C)c23)c1 [Compound 64]	26 to 50%

In: What reported inhibition at 20 µM corresponds to COc1nc(-c2nccn2C)nc2c(-c3ncccc3F)csc12 [Compound 95] on Rac-1 (Homo sapiens, UniProt P63000)?
Out: 76 to 100%

In: # repeat for COCCCn1ccnc1-c1nc(O)c2scc(-c3ccccn3)c2n1 [Compound 79]
Out: 51 to 75%

In: # repeat for COCCn1ccnc1-c1nc(N[C@@H]2CC[C@H](OC)C2)c2ccsc2n1 (racemic) [Compound 8]
Out: 76 to 100%

In: # repeat for CO[C@H]1CC[C@@H](Nc2nc(-c3nccn3C)nc3sc(-c4ccn(C(C)C)n4)c(-c4ccccc4)c23)C1 [Compound 5]
Out: 26 to 50%

In: # repeat for CO[C@H]1CCCN(c2nc(-c3nccn3C)nc3sc(-c4ccn(C(C)C)n4)c(C)c23)C1 [Compound 49]
Out: 26 to 50%

###

Biological target: KRas G12C mutant (Homo sapiens, UniProt P01116, G12C)
Construct: made in house
Assay: Ras GTP binding domain inhibition assay (labeled-GTP competition, cell-free)
Conditions: with SOS, read-out: KRas G12C mutant + SOS: % inh.
Source text: This is a competitive binding assay. It involves the immobilization of a protein on solid phase, interaction with a small molecule drug candidate, and then competitive binding with a labeled native GTP or GDP ligand. […] The small GTPases proteins: KRas wild type. KRas Q61H mutant, KRas G12C mutant, KRas G12D mutants, Rac-1, and Rho-A were expressed as His-tagged proteins. In addition, the Guanosine nucleotide Exchange Factor (GEF) Sos protein (residues 556-1049) was expressed as a His-tagged protein. […]
Each entry below lists one item and its recorded inhibition at 20 µM value.

Some solved entries appear below for comparison.
COMPOUND	MEASURED ON	RESULT
CO[C@H]1CC(Nc2nc(-c3nccn3C)nc3sc(-c4ccn(C(C)C)n4)c(C)c23)C[C@@H]1OC (racemic)	KRas G12C mutant (Homo sapiens, UniProt P01116, G12C)	76 to 100%
COCCCNc1nc(-c2nccn2C)nc2sc(-c3ccn(C(C)C)n3)c(C)c12	KRas G12C mutant (Homo sapiens, UniProt P01116, G12C)	76 to 100%

In: May I ask what inhibition at 20 µM has been recorded for `COCCn1ccnc1-c1nc(N[C@H]2C[C@@H](OC)C2)c2ccsc2n1` ?
Out: 76 to 100%

In: # repeat for `CO[C@H]1CCCN(c2nc(-c3nccn3C)nc3sc(-c4ccn(C(C)C)n4)c(C)c23)C1`
Out: 51 to 75%

In: # repeat for `Cc1c(-c2ccn(C(C)C)n2)sc2nc(-c3nccn3C)nc(NCCc3nnn[nH]3)c12`
Out: 51 to 75%

In: # repeat for `CO[C@H]1CC[C@@H](Nc2nc(-c3nccn3C)nc3sc(-c4ccn(C(C)C)n4)c(-c4ccccc4)c23)C1`
Out: 76 to 100%

In: # repeat for `CO[C@@H]1CCCN(c2nc(-c3nccn3C)nc3sc(-c4ccn(C(C)C)n4)c(C)c23)C1`
Out: 51 to 75%

In: # repeat for `COCCn1ccnc1-c1nc(O)c2scc(-c3ccncc3)c2n1`
Out: 51 to 75%

In: # repeat for `COCCCn1ccnc1-c1nc(O)c2scc(-c3ccccn3)c2n1`
Out: 51 to 75%
